Assignment: determine reported Initial (%) Total Related substances for the given compounds.
- TEST DETAILS: Photostability test, ultraviolet light (200 W·hr/m2) exposure
- CONDITION DESCRIPTION: Table 10, initial
Counter-ions that a name gives are not always drawn.
# value in %; strip the unit string

**Q:** Which value of Initial (%) Total Related substances has been reported for Cc1nc2c(O[C@H]3CCOc4cc(F)cc(F)c43)cc(C(=O)N(C)C)cc2[nH]1 [Malate Salt] in the records?
**A:** 0.146

**Q:** What would you report for Cc1nc2c(O[C@H]3CCOc4cc(F)cc(F)c43)cc(C(=O)N(C)C)cc2[nH]1 [Phosphate Salt] ?
**A:** 0.254

**Q:** What would you report for Cc1nc2c(O[C@H]3CCOc4cc(F)cc(F)c43)cc(C(=O)N(C)C)cc2[nH]1 [Sulfate Salt] ?
**A:** 0.609

**Q:** What would you report for Cc1nc2c(O[C@H]3CCOc4cc(F)cc(F)c43)cc(C(=O)N(C)C)cc2[nH]1 [Methanesulfonate Salt (Crystalline Form)] ?
**A:** 0.265

---

- TEST DETAILS: Solid-state accelerated stability test (40 ± 2 °C/RH 75 ± 5 %)
- CONDITION DESCRIPTION: Table 7, initial; degradant of Formula 4
Counter-ions that a name gives are not always drawn.
Define the label as 1 when Initial (%) Degradant is strictly less than 0.1% and as 0 in all remaining cases.

**Q:** Say whether its Initial (%) Degradant is strictly beneath 0.1%. Entry: Cc1nc2c(O[C@H]3CCOc4cc(F)cc(F)c43)cc(C(=O)N(C)C)cc2[nH]1 [Methanesulfonate Salt (Crystalline Form)]
**A:** 0

**Q:** What would you report for Cc1nc2c(O[C@H]3CCOc4cc(F)cc(F)c43)cc(C(=O)N(C)C)cc2[nH]1 [Sulfate Salt] ?
**A:** 0

**Q:** What would you report for Cc1nc2c(O[C@H]3CCOc4cc(F)cc(F)c43)cc(C(=O)N(C)C)cc2[nH]1 [Hemisalicylate Salt] ?
**A:** 1

**Q:** What would you report for Cc1nc2c(O[C@H]3CCOc4cc(F)cc(F)c43)cc(C(=O)N(C)C)cc2[nH]1 [Maleate Salt] ?
**A:** 1

**Q:** What would you report for Cc1nc2c(O[C@H]3CCOc4cc(F)cc(F)c43)cc(C(=O)N(C)C)cc2[nH]1 [Pidolate Salt] ?
**A:** 1

**Q:** What would you report for Cc1nc2c(O[C@H]3CCOc4cc(F)cc(F)c43)cc(C(=O)N(C)C)cc2[nH]1 [Hydrobromide Salt] ?
**A:** 0

**Q:** What would you report for Cc1nc2c(O[C@H]3CCOc4cc(F)cc(F)c43)cc(C(=O)N(C)C)cc2[nH]1 [Malate Salt] ?
**A:** 1

**Q:** What would you report for Cc1nc2c(O[C@H]3CCOc4cc(F)cc(F)c43)cc(C(=O)N(C)C)cc2[nH]1 [Methanesulfonate Salt (Amorphous Form)] ?
**A:** 0

**Q:** What would you report for Cc1nc2c(O[C@H]3CCOc4cc(F)cc(F)c43)cc(C(=O)N(C)C)cc2[nH]1 [Phosphate Salt] ?
**A:** 1

---

- TEST DETAILS: Solid-state stress stability test (temperature 60 °C)
- CONDITION DESCRIPTION: 60 °C, 1 month
Structures can show the parent of a compound that is named as a salt.
QUANTITY MEASURED: After 1 Month (%) Total Related substances

**Q:** Which value of After 1 Month (%) Total Related substances has been reported for Cc1nc2c(O[C@H]3CCOc4cc(F)cc(F)c43)cc(C(=O)N(C)C)cc2[nH]1 [Malate Salt] in the records?
**A:** 2.026%

**Q:** What would you report for Cc1nc2c(O[C@H]3CCOc4cc(F)cc(F)c43)cc(C(=O)N(C)C)cc2[nH]1 [Hemisalicylate Salt] ?
**A:** 0.268%

**Q:** What would you report for Cc1nc2c(O[C@H]3CCOc4cc(F)cc(F)c43)cc(C(=O)N(C)C)cc2[nH]1 [Methanesulfonate Salt (Crystalline Form)] ?
**A:** 5.408%

**Q:** What would you report for Cc1nc2c(O[C@H]3CCOc4cc(F)cc(F)c43)cc(C(=O)N(C)C)cc2[nH]1 [Hydrochloride Salt (Amorphous Form)] ?
**A:** 1.536%

**Q:** What would you report for Cc1nc2c(O[C@H]3CCOc4cc(F)cc(F)c43)cc(C(=O)N(C)C)cc2[nH]1 [Maleate Salt] ?
**A:** 6.070%

**Q:** What would you report for Cc1nc2c(O[C@H]3CCOc4cc(F)cc(F)c43)cc(C(=O)N(C)C)cc2[nH]1 [Methanesulfonate Salt (Amorphous Form)] ?
**A:** 12.245%

---

- TEST DETAILS: Photostability test, ultraviolet light (200 W·hr/m2) exposure
- CONDITION DESCRIPTION: Table 10, UV 200 W·hr/m2, PE bag
Where a name gives a salt, the structure may show the parent alone.
Define the label as Criterion met when After Ultraviolet Light Exposure (200 W hr/m2)(%) Degradant is strictly less than 0.2% and as Criterion not met in all remaining cases.

**Q:** Say whether its After Ultraviolet Light Exposure (200 W hr/m2)(%) Degradant is strictly beneath 0.2%. Entry: Cc1nc2c(O[C@H]3CCOc4cc(F)cc(F)c43)cc(C(=O)N(C)C)cc2[nH]1 [Maleate Salt]
**A:** Criterion met

**Q:** What would you report for Cc1nc2c(O[C@H]3CCOc4cc(F)cc(F)c43)cc(C(=O)N(C)C)cc2[nH]1 [Malate Salt] ?
**A:** Criterion met

**Q:** What would you report for Cc1nc2c(O[C@H]3CCOc4cc(F)cc(F)c43)cc(C(=O)N(C)C)cc2[nH]1 [Phosphate Salt] ?
**A:** Criterion met

**Q:** What would you report for Cc1nc2c(O[C@H]3CCOc4cc(F)cc(F)c43)cc(C(=O)N(C)C)cc2[nH]1 [Methanesulfonate Salt (Amorphous Form)] ?
**A:** Criterion not met

**Q:** What would you report for Cc1nc2c(O[C@H]3CCOc4cc(F)cc(F)c43)cc(C(=O)N(C)C)cc2[nH]1 [Pidolate Salt] ?
**A:** Criterion met

**Q:** What would you report for Cc1nc2c(O[C@H]3CCOc4cc(F)cc(F)c43)cc(C(=O)N(C)C)cc2[nH]1 [Methanesulfonate Salt (Crystalline Form)] ?
**A:** Criterion met

**Q:** What would you report for Cc1nc2c(O[C@H]3CCOc4cc(F)cc(F)c43)cc(C(=O)N(C)C)cc2[nH]1 [Hydrobromide Salt] ?
**A:** Criterion not met

**Q:** What would you report for Cc1nc2c(O[C@H]3CCOc4cc(F)cc(F)c43)cc(C(=O)N(C)C)cc2[nH]1 [Sulfate Salt] ?
**A:** Criterion not met

**Q:** What would you report for Cc1nc2c(O[C@H]3CCOc4cc(F)cc(F)c43)cc(C(=O)N(C)C)cc2[nH]1 [Hemisalicylate Salt] ?
**A:** Criterion not met

---

- TEST DETAILS: Solid-state stress stability test (temperature 60 °C)
- CONDITION DESCRIPTION: 60 °C, 1 month
Where a name gives a salt, the structure may show the parent alone.
QUANTITY MEASURED: After 1 Month (%) Degradant
# value in %; strip the unit string

**Q:** Which value of After 1 Month (%) Degradant has been reported for Cc1nc2c(O[C@H]3CCOc4cc(F)cc(F)c43)cc(C(=O)N(C)C)cc2[nH]1 [Hemisalicylate Salt] in the records?
**A:** 0.039

**Q:** What would you report for Cc1nc2c(O[C@H]3CCOc4cc(F)cc(F)c43)cc(C(=O)N(C)C)cc2[nH]1 [Maleate Salt] ?
**A:** 1.248

**Q:** What would you report for Cc1nc2c(O[C@H]3CCOc4cc(F)cc(F)c43)cc(C(=O)N(C)C)cc2[nH]1 [Malate Salt] ?
**A:** 1.320

**Q:** What would you report for Cc1nc2c(O[C@H]3CCOc4cc(F)cc(F)c43)cc(C(=O)N(C)C)cc2[nH]1 [Hydrobromide Salt] ?
**A:** 7.787

**Q:** What would you report for Cc1nc2c(O[C@H]3CCOc4cc(F)cc(F)c43)cc(C(=O)N(C)C)cc2[nH]1 [Methanesulfonate Salt (Crystalline Form)] ?
**A:** 4.167

**Q:** What would you report for Cc1nc2c(O[C@H]3CCOc4cc(F)cc(F)c43)cc(C(=O)N(C)C)cc2[nH]1 [Phosphate Salt] ?
**A:** 1.668

**Q:** What would you report for Cc1nc2c(O[C@H]3CCOc4cc(F)cc(F)c43)cc(C(=O)N(C)C)cc2[nH]1 [Methanesulfonate Salt (Amorphous Form)] ?
**A:** 9.245

**Q:** What would you report for Cc1nc2c(O[C@H]3CCOc4cc(F)cc(F)c43)cc(C(=O)N(C)C)cc2[nH]1 [Pidolate Salt] ?
**A:** 0.088

**Q:** What would you report for Cc1nc2c(O[C@H]3CCOc4cc(F)cc(F)c43)cc(C(=O)N(C)C)cc2[nH]1 [Sulfate Salt] ?
**A:** 2.345
